# assayProcedure: HepG2 cytotoxicity
# conditionSet: human, HepG2 cells
quantity: IC50 at 2 days

[[record]]
molecule = "CO[C@H]1/C=C/O[C@@]2(C)Oc3c(C)c(O)c4c(O)c(c(/C=N/N5CCN(C)CC5)c(O)c4c3C2=O)NC(=O)/C(C)=C\\C=C\\[C@H](C)[C@H](O)[C@@H](C)[C@@H](O)[C@@H](C)[C@H](OC(C)=O)[C@@H]1C [Rifampicin, reference compound]"
quantity = "IC50 at 2 days"
experimentalvalue = "> 100 µM"


----------
# System: RAW 264.7 cells
pIC50: −log10 of the molar value.
quantity: pIC50

[[record]]
molecule = "O=[N+]([O-])c1cc(C(F)(F)F)ccc1NCCc1c[nH]c2ccc(O)cc12 [Compound 5]"
quantity = "pIC50"
experimentalvalue = 4.54

